Numbers sourced from ChEMBL document CHEMBL1121866.

system: Mus musculus; assay: Compound was evaluated for antitumor activity against L1210 leukemia in mice by NCI screener test at a dose of 200 mg/kg; assay type: functional
We begin with a simple list: items and their reported T/C.
experimental readout: T/C (%)

1. Cc1cn([C@H]2C[C@H](O)[C@@H](CO[P+]([O-])(N3CC3(C)C)N3CC3(C)C)O2)c(=O)[nH]c1=O (some centres undefined); 124
2. CC(=O)O[C@H]1C[C@H](n2cc(C)c(=O)[nH]c2=O)O[C@@H]1CO[P+]([O-])(N1CC1(C)C)N1CC1(C)C (some centres undefined); 123
3. CC(=O)O[C@H]1C[C@H](n2cc(C)c(=O)[nH]c2=O)O[C@@H]1CO[P+]([O-])(N1CC1)N1CC1; 112
4. Cc1cn([C@H]2C[C@H](O)[C@@H](CO[P+]([O-])(N3CC3)N3CC3)O2)c(=O)[nH]c1=O; 94
